The reported measurements were obtained from the supplement of paper PMC10567573.

Consider the following variants; for each one, report its protein stability index.
B1: VAMP4 (parent)
chain: FLRGPSGPRFGPRNDKIKHVQNQV

Variants of: B1
ASSAY_NOTES: protein stability index of a GFP-peptide fusion (GPS, HEK-293T) (PSI 1-6); higher = more stable;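 note: lentivirally expressed fusions sorted by FACS into six bins by GFP to DsRed ratio, PSI derived from sequencing read proportions per bin multiplied by bin number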
EXPERIMENTAL_SETUP: c terminus: a fixed tail appended
Reply briefly: the number, and no unit.

Form: variant = N14G ; protein stability index = 2.92

Form: variant = L2T ; protein stability index = 2.99

Form: variant = I17R ; protein stability index = 3
